- assay target: mPAD4 (Mus musculus, UniProt Q9Z183)
- Sequence (Q9Z183 whole entry): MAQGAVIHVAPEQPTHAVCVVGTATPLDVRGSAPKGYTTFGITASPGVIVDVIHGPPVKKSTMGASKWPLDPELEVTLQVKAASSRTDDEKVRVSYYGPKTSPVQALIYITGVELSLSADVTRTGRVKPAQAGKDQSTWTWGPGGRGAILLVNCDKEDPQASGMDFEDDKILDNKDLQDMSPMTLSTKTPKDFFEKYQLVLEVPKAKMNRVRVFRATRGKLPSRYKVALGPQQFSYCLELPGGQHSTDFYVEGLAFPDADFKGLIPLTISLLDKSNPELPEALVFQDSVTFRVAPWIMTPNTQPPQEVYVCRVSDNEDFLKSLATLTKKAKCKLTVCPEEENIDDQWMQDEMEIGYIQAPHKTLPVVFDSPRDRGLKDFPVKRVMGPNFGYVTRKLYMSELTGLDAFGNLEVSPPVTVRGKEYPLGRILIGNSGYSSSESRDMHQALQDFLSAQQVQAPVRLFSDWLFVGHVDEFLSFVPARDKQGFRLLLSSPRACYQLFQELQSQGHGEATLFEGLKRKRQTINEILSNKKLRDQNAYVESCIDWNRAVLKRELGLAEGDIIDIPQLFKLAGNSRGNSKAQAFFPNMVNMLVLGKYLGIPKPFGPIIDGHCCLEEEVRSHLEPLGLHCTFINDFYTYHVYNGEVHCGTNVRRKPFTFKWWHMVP
- assay procedure: mPAD4 RFMS PAD4 inhibition assay
- Format: biochemical
- study conditions: mPAD4, RFMS readout; read-out: mPAD4 RFMS IC50
assay endpoint: IC50

// worked examples, IC50 included
- compound: "COc1cc(C(=O)N2CCC[C@@H](N)C2)cc2nc(-c3cc4cccnc4n3[C@@H](C)C3CC3)n(C)c12"
  IC50: "1 to 5 µM"
- compound: "COc1cc(C(=O)N2C[C@@H](N)CC[C@H]2CO)cc2nc(-c3cc4cccnc4n3CC3CC3)n(C)c12 (single isomer, unassigned)"
  IC50: "5 to 10 µM"
- compound: "CCCn1c(-c2nc3cc(C(=O)N4C[C@H]5CC[C@@H]4[C@@H]5N)cc(OC)c3n2C)cc2cccnc21"
  IC50: "< 1 µM"
- compound: "Cn1c(-c2cc3cccnc3n2CC2CC2)nc2cc(C(=O)N3CCC[C@@H](N)C3)c(F)cc21"
  IC50: "1 to 5 µM"
- compound: "Cn1c(-c2cc3cccnc3n2CC2CC(C)(O)C2)nc2cc(C(=O)N3CCC[C@@H](N)C3)ccc21 (stereo partly shown)"
  IC50: "> 10 µM"

## Task Fill in IC50 for record COc1cc(C(=O)N2C[C@H](N)CC[C@@H]2C)cc2nc(-c3cc4cccnc4n3CC3CC3)n(C)c12
## Result < 1 µM

## Task Fill in IC50 for record COc1ccc2cc(-c3nc4cc(C(=O)N5CC[C@@H](OC)[C@@H](N)C5)ccc4n3C)n(CC3CC3)c2n1
## Result 1 to 5 µM

###

- assay target: mPAD4 (Mus musculus)
- assay procedure: mPAD4 RFMS PAD4 inhibition assay
- Assay type: biochemical
- study conditions: mPAD4, RFMS readout; read-out: mPAD4 RFMS IC50
assay endpoint: IC50

// worked examples, IC50 included
- compound: "COc1cc(C(=O)N2CC3(CNCCO3)C2)cc2nc(-c3cc4cccnc4n3CC3CC3)n(C)c12"
  IC50: "> 10 µM"
- compound: "CCn1c(-c2nc3cc(C(=O)N4C[C@H]5CC[C@@H]4[C@@H]5N)cc(OC)c3n2C)cc2ccc(C(F)F)nc21"
  IC50: "< 1 µM"

## Task Fill in IC50 for record COc1cc(C(=O)N2CC3CC(N)C2C3)cc2nc(-c3cc4cccnc4n3CC3CC3)n(C)c12 (racemic)
## Result > 10 µM

## Task Fill in IC50 for record Cn1c(-c2cc3cccnc3n2CC2CC2)nc2cc(C(=O)N3CC[C@@H](F)[C@H](N)C3)ccc21
## Result > 10 µM

###

- assay target: hPAD4 (Homo sapiens)
- Sequence (Q9UM07 whole entry): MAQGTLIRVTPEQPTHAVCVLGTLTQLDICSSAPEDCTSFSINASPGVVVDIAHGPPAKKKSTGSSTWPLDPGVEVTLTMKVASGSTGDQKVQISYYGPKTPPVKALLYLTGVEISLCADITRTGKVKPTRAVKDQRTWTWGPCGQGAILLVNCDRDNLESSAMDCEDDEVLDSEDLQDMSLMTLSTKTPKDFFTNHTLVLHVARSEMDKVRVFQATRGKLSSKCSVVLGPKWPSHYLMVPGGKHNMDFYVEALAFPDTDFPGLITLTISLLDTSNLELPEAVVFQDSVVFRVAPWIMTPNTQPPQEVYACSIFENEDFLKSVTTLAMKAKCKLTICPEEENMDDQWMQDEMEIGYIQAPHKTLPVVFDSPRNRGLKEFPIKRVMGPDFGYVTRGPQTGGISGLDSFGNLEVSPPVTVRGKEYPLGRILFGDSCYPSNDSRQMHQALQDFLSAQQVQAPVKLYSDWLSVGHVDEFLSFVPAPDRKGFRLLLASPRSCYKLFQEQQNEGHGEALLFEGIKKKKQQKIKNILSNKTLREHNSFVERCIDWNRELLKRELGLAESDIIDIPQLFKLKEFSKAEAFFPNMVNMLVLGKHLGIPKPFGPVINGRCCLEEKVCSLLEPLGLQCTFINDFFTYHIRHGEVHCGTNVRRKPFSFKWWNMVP
- assay procedure: hPAD4 RFMS (RapidFire mass spectrometry) PAD4 inhibition assay;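 for hPAD4 RFMS pIC50: grade E means pIC50 at most 4 and F means pIC50 4.0 to 5.0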
- Format: biochemical
- study conditions: hPAD4 enzyme, RFMS readout; pIC50=−log(IC50)
assay endpoint: hPAD4 RFMS pIC50

// worked examples, hPAD4 RFMS pIC50 included
- molecule: "COc1cc(C(=O)N2CCOC3(CNC3)C2)cc2nc(-c3cc4cccnc4n3CC3CC3)n(C)c12"
  assay endpoint: "hPAD4 RFMS pIC50"
  experimental value: "E/F"
- molecule: "COc1cc(C(=O)N2C[C@H](N)CC[C@H]2CO)cc2nc(-c3cc4cccnc4n3CC3CC3)n(C)c12 (single isomer, unassigned) [Compound I-226]"
  assay endpoint: "hPAD4 RFMS pIC50"
  experimental value: "E/F"
- molecule: "COc1cc(C(=O)N2C[C@H]3CC[C@@H]2[C@@H]3N)cc2nc(-c3cc4cc(NCC5CC5)ccc4n3CC3CC3)n(C)c12"
  assay endpoint: "hPAD4 RFMS pIC50"
  experimental value: "G/H"
- molecule: "COc1cc(C(=O)N2C[C@@H]3CC[C@H]2[C@H](N)C3)cc2nc(-c3cc4cccnc4n3CC3CC3)n(C)c12"
  assay endpoint: "hPAD4 RFMS pIC50"
  experimental value: "E/F"

Below: the item to evaluate.
## Task Fill in hPAD4 RFMS pIC50 for record COc1cc(C(=O)N2C[C@H](N)CC[C@H]2CO)cc2nc(-c3cc4cccnc4n3CC3CC3)n(C)c12 (racemic) [Compound I-220]
## Result E/F

###

- assay target: hPAD4 (Homo sapiens)
- assay procedure: hPAD4 RFMS (RapidFire mass spectrometry) PAD4 inhibition assay
- Assay type: biochemical
- study conditions: hPAD4 enzyme, RFMS readout; read-out: hPAD4 RFMS IC50
pIC50: −log10 of the molar value.
assay endpoint: pIC50

- compound: "Cn1c(-c2cc3cccnc3n2CC2CC2)nc2cc(C(=O)N3CC4CC3CN4)ccc21 (stereo not shown)"
  pIC50: "< 5.00"
- compound: "COc1cc(C(=O)N2C[C@H]3CCC2[C@H]3N)cc2nc(-c3cc4ccc(C5=Cc6ccccc6C5)cc4n3CC3CC3)n(C)c12"
  pIC50: "> 6.00"

## Task GET pIC50 | system: hPAD4 (Homo sapiens) | item: COc1cc(C(=O)N2C[C@H]3CCC2[C@H]3N)cc2nc(-c3cc4ccc(/C=C/C5CC5)cc4n3CC3CC3)n(C)c12
## Result > 6.00

## Task GET pIC50 | system: hPAD4 (Homo sapiens) | item: COc1cc(C(=O)N2CC[C@H]3CCN[C@H]3C2)cc2nc(-c3cc4cncnc4n3CC3CC3)n(C)c12
## Result 5.30 to 6.00

###

# reported IC50; entries follow
- assay target: mPAD4 (Mus musculus, UniProt Q9Z183)
- assay procedure: mPAD4 RFMS PAD4 inhibition assay;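 for mPAD4 RFMS pIC50: grade E means pIC50 at most 4 and F means pIC50 4.0 to 5.0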
- Type: biochemical
- study conditions: mPAD4, RFMS readout; pIC50=−log(IC50); read-out: mPAD4 RFMS pIC50 (converted)

- compound: "COc1cc(C(=O)N2CC[C@@H](F)[C@@H](N)C2)cc2nc(-c3cc4cccnc4n3CC3CC3)n(C)c12"
  IC50: "< 1000 nM"

## Task Fill in IC50 for record CCn1c(-c2nc3cc(C(=O)N4CC5CCC4C5N)cc(OC)c3n2C)cc2ccc(OC)nc21 (racemic)
## Result < 1000 nM

## Task Fill in IC50 for record COc1cc(C(=O)N2CCOC3(CNC3)C2)cc2nc(-c3cc4cccnc4n3CC3CC3)n(C)c12
## Result > 100000 nM

###

- assay target: mPAD4 (Mus musculus)
- assay procedure: mPAD4 RFMS PAD4 inhibition assay
- Assay type: biochemical
- study conditions: mPAD4, RFMS readout; pIC50=−log(IC50); read-out: mPAD4 RFMS pIC50 (converted)
Structures can show the parent of a compound that is named as a salt.
# reported IC50; entries follow

// worked examples, IC50 included
- compound: "COc1cc(C(=O)N2CC[C@@H](OC)[C@@H](N)C2)cc2nc(-c3cc4cccnc4n3CC3CC3)n(C)c12 [Compound I-121]"
  assay target: "mPAD4 (Mus musculus)"
  assay endpoint: "IC50"
  experimental value: "< 1000 nM"
- compound: "CCn1c(-c2cc3ccc(OC)nc3n2CC2CC2)nc2cc(C(=O)N3CCC[C@@H](N)C3)cc(OC)c21 [Compound I-106]"
  assay target: "mPAD4 (Mus musculus)"
  assay endpoint: "IC50"
  experimental value: "< 1000 nM"
- compound: "Cc1cc2c(cc1C(=O)N1CCC[C@@H](N)C1)nc(-c1cc3cccnc3n1CC1CC1)n2C [Compound I-103, hydrochloride]"
  assay target: "mPAD4 (Mus musculus)"
  assay endpoint: "IC50"
  experimental value: "10000 to 100000 nM"
- compound: "CCn1c(-c2cc3cccnc3n2CC2CC2)nc2cc(C(=O)N3CC[C@@H]4CCN[C@@H]4C3)cc(OC)c21 [Compound I-23]"
  assay target: "mPAD4 (Mus musculus)"
  assay endpoint: "IC50"
  experimental value: "1000 to 10000 nM"

## Task Fill in IC50 for record Cn1c(-c2cc3cccnc3n2CC2CC2)nc2cc(C(=O)N3CC[C@@H](F)[C@H](N)C3)ccc21 [Compound I-55]
## Result 10000 to 100000 nM

## Task Fill in IC50 for record COc1cc(C(=O)N2C[C@H](N)C[C@@H](F)C2)cc2nc(-c3cc4ccc(C(F)(F)F)nc4n3CC3CC3)n(C)c12 [Compound I-208]
## Result < 1000 nM

## Task Fill in IC50 for record Cn1c(-c2cc3cccnc3n2CC2CC(C)(O)C2)nc2cc(C(=O)N3CCC[C@@H](N)C3)ccc21 (some centres unmarked) [Compound I-110]
## Result 10000 to 100000 nM

## Task Fill in IC50 for record CCn1c(-c2nc3cc(C(=O)N4C[C@H]5CC[C@@H]4[C@@H]5N)cc(OC)c3n2C)cc2ccc(OC)nc21 [Compound I-139]
## Result < 1000 nM

## Task Fill in IC50 for record COc1cc(C(=O)N2C[C@H](N)C[C@@H](F)C2)cc2nc(-c3cc4cccnc4n3CC3CC3)n(C)c12 [Compound I-35]
## Result < 1000 nM

## Task Fill in IC50 for record COc1cc(C(=O)N2C[C@H]3CC[C@@H]2[C@@H]3N)cc2nc(-c3cc4ccc(C(F)(F)F)nc4n3CC3CC3)n(C)c12 [Compound I-196]
## Result < 1000 nM

## Task Fill in IC50 for record Cn1c(-c2cc3cccnc3n2CC2CC2)nc2cc(C(=O)N3CC[C@H]4CCN[C@H]4C3)cc(OC(F)F)c21 (single isomer, unassigned) [Compound I-25, hydrochloride]
## Result 1000 to 10000 nM

## Task Fill in IC50 for record COc1ccc2cc(-c3nc4cc(C(=O)N5CCC[C@@H](N)C5)cc(OC(F)F)c4n3C)n(CC3CC3)c2n1 [Compound I-104]
## Result < 1000 nM
